- Tested on: Pfeiffer cells
- MEASUREMENT_PROTOCOL: Pfeiffer cell growth inhibition in a long term (11 days), CellTiter-Glo
- Assay type: cell-based, Human
- STATED_CONDITIONS: Homo sapiens, 264 h, 11 days, read-out: Experiment on Pfeiffer cell growth inhibition in a long term (11 days IC50)
QUANTITY_KIND: IC50

- CCOC(=O)N1CC=C(c2cnc(NCc3c(F)ccc4c3CCO4)n3cnnc23)CC1: 1 to 3 nM
- COC(=O)N1CC=C(c2cnc(NCc3c(F)ccc4c3CCO4)n3cnnc23)CC1: 1 to 3 nM
- CCC(=O)N1CC=C(c2cnc(NCc3c(F)ccc4c3CCO4)n3cnnc23)CC1: 9 to 27 nM
